Each entry below carries its reported melting point.
ENDPOINT_LABEL: melting point (°C)

SMILES_RECORD | ENDPOINT_LABEL | REPORTED
Oc1cc(Cl)ccc1Oc1ccc(Cl)cc1Cl | melting point | 55.6
c1ccc(-c2coc(-c3ccccc3)n2)cc1 | melting point | 103
C=CCCCCCC | melting point | -102
CCBr | melting point | -119
Nc1nccnn1 | melting point | 176
O=[N+]([O-])c1ccc(Cl)cc1 | melting point | 83.5
CCCCCCCCCCCCCCCCCC(=O)Nc1ccc(O)cc1 | melting point | 134

###

log10 vapour pressure (mmHg) vs 0.4: at or above is Fulfilled, below is Not fulfilled.

MOLECULE | QUALITATIVE_LABEL
C1CN2CCN1CC2 | Not fulfilled
Cc1ccc(Cl)cc1 | Fulfilled
CC(C)c1ccccc1C(C)C | Not fulfilled
CCCCN | Fulfilled
ClC(Cl)=C(Cl)C(Cl)(Cl)Cl | Not fulfilled
CCCC(N)=O | Not fulfilled
CCC=CCC | Fulfilled
C1COCCN1 | Fulfilled
C=C(C)CC(C)(C)C | Fulfilled
O=C1c2ccccc2C(=O)c2ccccc21 | Not fulfilled
NC=O | Not fulfilled
CCOC1Oc2ccc(OS(C)(=O)=O)cc2C1(C)C (stereo not drawn) | Not fulfilled
C=CCCCCCC | Fulfilled
c1ccc2cc3ccccc3cc2c1 | Not fulfilled
Clc1cccc(C(Cl)(Cl)Cl)n1 | Not fulfilled
CCCCCCCCCCCCCCCCCC(=O)OCC | Not fulfilled
C1=Cc2cccc3cccc1c23 | Not fulfilled
C=CCOCCC | Fulfilled

###

Label yes when boiling point is at or above 200 °C; otherwise label no.

COMPOUND | QUALITATIVE_LABEL
CCCCC(CC)COC(=O)c1ccc(C(=O)OCC(CC)CCCC)c(C(=O)OCC(CC)CCCC)c1 (configuration not stated) | yes
CNc1nc(NC(C)C)nc(SC)n1 | yes
Cc1cccnc1 | no
CC(C)(C)OC(=O)C(F)(F)F | no
Clc1ccc(Oc2ccc(Cl)cc2)cc1 | yes
c1ccc(-c2cccc(-c3ccccc3)c2)cc1 | yes
COc1cccc(OC)c1C#N | yes
C1=CC2C=CC1C2 | no
C[Si](C)(CCl)c1ccccc1 | yes
ClC=C(Cl)Cl | no
CC(C)COC(OCC(C)C)OCC(C)C | yes
Nc1ccc(F)cc1 | no
CCN(C)C | no
CCC(C)(C)C(=O)O | no
N#CCCOCCC#N | yes
COC(=O)c1ccc(C(=O)OC)cc1 | yes
CC1CCc2ccccc2O1 (configuration not stated) | yes
ClC/C=C/CCl | no
Fc1cc(F)c(F)c(F)c1F | no
Cc1ccccc1I | yes
CCC(C)(O)CC(C)C (configuration not stated) | no
Cc1ccccc1N.Cl | yes
CCOC(=O)c1ccccc1OC | yes
COc1cccc([N+](=O)[O-])c1 | yes
CC(C)CCCC(C)N (configuration not stated) | no
COCCOCCOCCO | yes
O=CCCl | no
COC(=O)CCCl | no
CCCC1CCCCC1 | no
CCCCCCCCCCCCCCCCCC1CCCCC1 | yes
CCOC(=O)c1ccc(Br)cc1 | yes
C=CC#N | no
FC1=C(F)C(F)(F)C1(F)F | no
C=CCN=C=O | no
CC1CCCSC1 (configuration not stated) | no
CC(CC(C)(C)C)CC(C)(C)C | no
OCc1cccc(I)c1 | yes
Clc1cccc2cccnc12 | yes
